target: T1, recombinant mouse Clec4F (CLEC4F/CLECSF13), soluble extracellular domain Ala65-Gly548 (Mus musculus, UniProt P70194); assay: SPR; Biacore T200; 400 RU of recombinant mouse Clec4F coupled to a CM5 chip; nanobodies flown at 30 ul/min at 1-400 nM; 1:1 binding model; conditions: both partners purified
T1 construct: Clec4F (C-type lectin domain family 4, member F), mouse, soluble extracellular domain Ala65-Gly548; the oligomeric state of the bought protein was not measured here; also called mClec4F; mouse Kupffer cell receptor Clec4F; source: bought: R&D Systems (NS0-derived, mouse myeloma cell line)
T1 sequence (P70194 65-548): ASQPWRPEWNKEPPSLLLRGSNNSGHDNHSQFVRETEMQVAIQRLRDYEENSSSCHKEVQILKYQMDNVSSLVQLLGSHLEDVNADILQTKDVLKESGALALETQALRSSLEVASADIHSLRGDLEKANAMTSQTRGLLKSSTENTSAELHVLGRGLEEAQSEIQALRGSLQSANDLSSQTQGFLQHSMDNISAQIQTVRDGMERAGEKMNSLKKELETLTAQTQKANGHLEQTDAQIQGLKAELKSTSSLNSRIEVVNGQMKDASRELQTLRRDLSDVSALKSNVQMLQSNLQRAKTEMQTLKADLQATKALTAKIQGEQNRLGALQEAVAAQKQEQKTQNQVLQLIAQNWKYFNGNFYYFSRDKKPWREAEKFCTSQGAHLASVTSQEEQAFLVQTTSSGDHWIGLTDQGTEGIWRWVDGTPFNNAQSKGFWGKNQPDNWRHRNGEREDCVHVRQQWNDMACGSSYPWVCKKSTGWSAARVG
measuredMetric: koff (s⁻¹)
Answer in s⁻¹, number only, no unit symbol.

binder="Nb10.16 (VHH, Labelled with 99mTc through its His tag for the biodistribution test only; also called R2-16; group G10; source: E. coli WK6 periplasm, purified (IMAC Ni-NTA, dialysis; size exclusion chromatography for the later tests); not shown: His6, C-terminal, kept) VHH: DVQLVESGGGLVEPGGSLRLSCAASGRTFSDYNMGWFRQAPGKEREFVATISRNGAGSYYTDSVKGRFTISRDNAKNTVYLQMNNLKPEDSAAYYCAATLRVALSTITVGGYDYWGQGTQVTVSS" measuredmetric=koff endpointunit=s⁻¹ result=0.000825
binder="Nb8.37 (VHH, Labelled with 99mTc through its His tag for the biodistribution test only; also called R3-37; group G8; source: E. coli WK6 periplasm, purified (IMAC Ni-NTA, dialysis; size exclusion chromatography for the later tests); not shown: His6, C-terminal, kept) VHH: QVQLVESGGGLVQPGGSLRLSCAASGLTLDYLRIAWFRQAPGKKRERVSCISITEGSANYADSVKGRFTISRDNAKNTVFLQMNSLKPEDTAVYYCAARRYYCSGTPTDYAYWGQGTQVTVSS" measuredmetric=koff endpointunit=s⁻¹ result=0.00124
binder="Nb3.60 (VHH, The preparation held dimers beside monomers (SDS-PAGE); also called R2-60; group G3; source: E. coli WK6 periplasm, purified (IMAC Ni-NTA, dialysis)) VHH: QVQLVESGGGLVQPGGSLRLSCVASGTIFSMYGVYWYRQAPGNQREVVAWISSSGNTNYVNAVKGRFTISRDNAKNTTWLQMHSLKPEDAAVYYCRLGMNYWGKGTQVTVSS" measuredmetric=koff endpointunit=s⁻¹ result=0.00475
binder="Nb10.66 (VHH, also called R2-66; group G10; source: E. coli WK6 periplasm, purified (IMAC Ni-NTA, dialysis)) VHH: DVQLVESGGGLVQAGGSLRLSCAASGRTFSDYNMGWFRQAPGKEREFVATISRSGGGTYYSDSVKGRFTISRDNAKNTVYLQMNNLKPEDSAAYYCAATLRVALSTITVGGYNYWGQGTQVTVSS" measuredmetric=koff endpointunit=s⁻¹ result=0.00135
binder="Nb9.15 (VHH, also called R3-15; group G9; source: E. coli WK6 periplasm, purified (IMAC Ni-NTA, dialysis)) VHH: QVQLVESGGGLVQPGGSLRLSCAASGFSLASRTIAWFRQAPGKEREGVSCISRSGAFTNNADSVKGRFTISRDNAKNTVYLQMNSLKPEDTADYYCAVTSSWYSTCLRESIYDSWGQGTQVTVSS" measuredmetric=koff endpointunit=s⁻¹ result=0.0317
binder="Nb10.21 (VHH, also called R2-21; group G10; source: E. coli WK6 periplasm, purified (IMAC Ni-NTA, dialysis)) VHH: QVQLVESGGGLVQAGGSLRLSCAASGRTFSSYNMGWFRQAPGKEREFVATISRNGAGTYYTDSVKGRFTISRDNAKNTVYLQMNNLKPEDSAAYYCAATQRVALSTITVGGYEYWGQGTQVTVSS" measuredmetric=koff endpointunit=s⁻¹ result=0.00223

Q: GET /values?readout=koff&item= Nb2.22 (VHH, Labelled with 99mTc through its His tag for the biodistribution test only; also called R3-22; group G2; source: E. coli WK6 periplasm, purified (IMAC Ni-NTA, dialysis; size exclusion chromatography for the later tests); not shown: His6, C-terminal, kept) VHH: QVQLVESGGGLVQAGGSLRLSCAASGATFITYGMTWFRQAPGKEREFVAAVTGNGAGTTYLPSVKGRFTISRDNAKNTVYLQMSSLKPEDTAVYYCGGRRWVPATAVDQVAYWGQGTQVTVSS
A: 0.00221
